Examples of binders with documented Kd follow.
target: Human SARS-CoV-2_Wuhan S (SmT1) (SARS-CoV-2 (Wuhan), UniProt P0DTC2 14-1208); assay: SPR, VHH over immobilised S
Number only, in nM; omit the unit.

These solved cases illustrate the format of a correct answer.
[[record]]
binder = "NRCoV2-17 VHH (VHH) VHH: EVQLQQSGGGLVQTGGSLRLSCAAAGSPFSQLAMSWYRQISGKERAWVASISPTGNRSYSKIAKGRFTISRDNAKNTVTLQMTSLKPEDTAAYICQAANVNGGDYWGQGTQVTVSS"
test_result = 0.15

[[record]]
binder = "NRCoV2-SR04 VHH (VHH) VHH: QVQLVESGGGLVQAGGSLRLSCAASGRTFSSHTVGWYRQAPGKQRDLVAAISMGGNTNYADYADSVKGRFTISRDNAKNTLYLQMNSLKPEDTAVYYCNTAALVGNRLLPMATITWGQGTQVTVSS"
test_result = 0.14

[[record]]
binder = "NRCoV2-15 VHH (VHH) VHH: EVQLVSSGGGLVEAGGSLRLSCIASGSTSGRNTMGWFRQAPGKQREWVAIVSTSGATNYAGSVKGRFTLSRDNAKNAVYLQMNNLKPEDTAVYYCYAAYGGGGDYWGQGTQVTVSS"
test_result = 0.32

[[record]]
binder = "NRCoV2-MRed18 VHH (VHH) VHH: EVQLVESGGGLVQPGGSLRLSCAASTTVFGRNAMGWYRQAPGKERELVATVSDGGTPNYADSVKGRFTISRDNAKNTIYLQMNSLEPEDTAVYYCNYYNYYYGRNFWGQGTQVTVSS"
test_result = 6.03


Pending binder:
State the recorded Kd for this entry: NRCoV2-SR01 VHH (VHH) VHH: EVQLVQSGGGSVQAGGSLRLSCVASGFTFDNYAIGWFRQAPGKEREGVSCISGNGGVTIYADSVKGRFTISRDNAKNLVYLQMNSLKPEDTAVYYCAATGIRSTWSVYGCSRLAGPYDYWGQGTQVTVSS
0.56
